# Tested on: SEM cells
# protocolDetails: cell viability relative to DMSO control; higher = less cytotoxic
# condition: RPMI 5 mM glucose + 10% FBS; 48 h; 0.19 µM
Recorded cell viability by entry

- compoundStructure: "Cc1cc(OCCC[S+](C)(=O)[O-])cc(C)c1-c1cccc(COc2ccc3c(c2)OC[C@H]3CC(=O)O)c1"
  scaleUnit: "%"
  cell viability: 91.8
- compoundStructure: "NC(=O)[C@H]1CCS[C@@H]2C[C@]3(CCCN3C(=O)Cc3ccc(NC(=O)COc4ccc(Cl)cc4Cl)cc3)C(=O)N12"
  scaleUnit: "%"
  cell viability: 103
- compoundStructure: "CC(C)(F)C[C@H](N[C@@H](c1ccc(-c2ccc([S+](C)(=O)[O-])cc2)cc1)C(F)(F)F)C(=O)NC1(C#N)CC1"
  scaleUnit: "%"
  cell viability: 105

###

# Tested on: NOMO1
# protocolDetails: cell viability relative to DMSO control; higher = less cytotoxic
# condition: RPMI 5 mM glucose + 10% dialyzed FBS; 48 h; 0.19 µM
Measured cell viability of individual entries

- compound: "C[C@@H]1CCN(C(=O)CC#N)C[C@@H]1N(C)c1ncnc2[nH]ccc12"
  cell viability / %: 80.7
- compound: "COc1cc([C@@H]2c3cc4c(cc3[C@H](O)[C@H]3COC(=O)[C@@H]23)OCO4)cc(OC)c1OC"
  cell viability / %: 91.3
- compound: "C[C@H](CCC(=O)O)[C@H]1CCC2C3C[C@H](O)[C@@H]4C[C@H](O)CC[C@]4(C)C3CC[C@@]21C (some centres undefined)"
  cell viability / %: 109
- compound: "CC(C)=CCC/C(C)=C/CC/C(C)=C/CSc1ccccc1C(=O)O"
  cell viability / %: 97

###

# Test system: P12-Ichikawa
# protocolDetails: cell viability relative to DMSO control; higher = less cytotoxic
# condition: RPMI 5 mM glucose + 10% dialyzed FBS; 48 h; 0.19 µM

- compound: "N[C@H]2CN(CC12CC1)c3c(F)cc4c(c3Cl)[N@@](C=C(C4=O)C(=O)O)C5C[C@H]5F (some centres undefined)"
  cell viability (%): 85.2
- compound: "N\\C1=N\\C2=C(N=C[N]2COCCO)C(=O)N1"
  cell viability (%): 97.3
- compound: "NC[C@@H]1O[C@H](O[C@H]2[C@@H](O)[C@H](O[C@@H]3[C@@H](O)[C@H](N)C[C@H](N)[C@H]3O[C@H]3O[C@H](CN)[C@@H](O)[C@H](O)[C@H]3N)O[C@@H]2CO)[C@H](N)[C@@H](O)[C@@H]1O.O=S(=O)(O)O.O=S(=O)(O)O.O=S(=O)(O)O"
  cell viability (%): 102
- compound: "CCOC(=O)[C@@]1(CCCCCCOc2ccc(Cl)cc2)CO1"
  cell viability (%): 111

###

# Test system: P12-Ichikawa
# protocolDetails: cell viability relative to DMSO control; higher = less cytotoxic
# condition: HPLM + 10% dialyzed FBS; 48 h; 0.0632 µM
This section presents compounds with their documented cell viability values.
reportedEndpoint: cell viability (%)

- compound: "CC(=O)OC[C@H]1O[C@@H]([S-])[C@H](OC(C)=O)[C@@H](OC(C)=O)[C@@H]1OC(C)=O.CCP(CC)CC.[Au+]"
  scaleUnit: "%"
  quantitativeReadout: 94.1
- compound: "COc1cc([C@@H]2c3cc4c(cc3[C@H](O)[C@H]3COC(=O)[C@@H]23)OCO4)cc(OC)c1OC"
  scaleUnit: "%"
  quantitativeReadout: 100
- compound: "O=C(CS(=O)Cc1ccco1)NC/C=C\\COc1cc(CN2CCCCC2)ccn1 (stereo unspecified)"
  scaleUnit: "%"
  quantitativeReadout: 101
- compound: "OC1=CC=C(C=C1)\\C2=C\\OC3=C(C(=CC(=C3)O)O)C2=O"
  scaleUnit: "%"
  quantitativeReadout: 114
- compound: "O=S(=O)([O-])CCS.[Na+]"
  scaleUnit: "%"
  quantitativeReadout: 127
- compound: "NC[C@@H]1O[C@H](O[C@H]2[C@@H](O)[C@H](O[C@@H]3[C@@H](O)[C@H](N)C[C@H](N)[C@H]3O[C@H]3O[C@H](CN)[C@@H](O)[C@H](O)[C@H]3N)O[C@@H]2CO)[C@H](N)[C@@H](O)[C@@H]1O.O=S(=O)(O)O.O=S(=O)(O)O.O=S(=O)(O)O"
  scaleUnit: "%"
  quantitativeReadout: 105
- compound: "CCN1C[C@H](C)[N]2C(=C(O)C3=C2\\C(=N/N(CC4=CC=C(F)C(=C4)Cl)C3=O)C(=O)NC)C1=O"
  scaleUnit: "%"
  quantitativeReadout: 124
- compound: "NC(=O)Nc1sc(-c2ccc(F)cc2)cc1C(N)=O"
  scaleUnit: "%"
  quantitativeReadout: 114
- compound: "OC[C@H]1O[C@H](C[C@@H]1O)N2\\C=C(F)/C(=O)NC2=O"
  scaleUnit: "%"
  quantitativeReadout: 78.1
- compound: "COc1cc([C@@H](CC(=O)O)c2ccc(C)c(CN3C[C@@H](C)Oc4ccccc4[S+]3(=O)[O-])c2)cc2nnn(C)c12"
  scaleUnit: "%"
  quantitativeReadout: 109
- compound: "O=C(O)CCCCC(CCSCc1ccccc1)SCc1ccccc1 (stereo unspecified)"
  scaleUnit: "%"
  quantitativeReadout: 120
- compound: "C[C@@H]1O[C@@H](O[C@H]2C[C@@H](O)[C@]3(CO)[C@H]4[C@H](O)C[C@]5(C)[C@@H](C6=CC(=O)OC6)CC[C@]5(O)[C@@H]4CC[C@]3(O)C2)[C@H](O)[C@H](O)[C@H]1O"
  scaleUnit: "%"
  quantitativeReadout: 32.9
- compound: "C=C1C(=O)[C@@]23C(CC[C@@H]1[C@H]2O)[C@@]12CO[C@]3(O)[C@@H](O)[C@@H]1C(C)(C)CC[C@@H]2O (stereo partly specified)"
  scaleUnit: "%"
  quantitativeReadout: 122
- compound: "CCc1cc(C(N)=S)ccn1"
  scaleUnit: "%"
  quantitativeReadout: 124
- compound: "O=C(NCCCCN1CCOCC1)c1cc2ccccc2o1"
  scaleUnit: "%"
  quantitativeReadout: 114
- compound: "CN(C)C1=CC(=CC=C1)C\\2=C\\3C(=O)N(NC3=C/C(=O)N2C)C4=CC=CC=C4Cl"
  scaleUnit: "%"
  quantitativeReadout: 113

Hello, the source for this data is the supplement of paper PMC11451515, in case you need it.
